- measurement target: particulate guanylyl cyclase receptor A (pGC-A) (Homo sapiens)
- Construct: expressed in transfected cells; host or cells: HEK293
- Sequence (P16066 33-1061): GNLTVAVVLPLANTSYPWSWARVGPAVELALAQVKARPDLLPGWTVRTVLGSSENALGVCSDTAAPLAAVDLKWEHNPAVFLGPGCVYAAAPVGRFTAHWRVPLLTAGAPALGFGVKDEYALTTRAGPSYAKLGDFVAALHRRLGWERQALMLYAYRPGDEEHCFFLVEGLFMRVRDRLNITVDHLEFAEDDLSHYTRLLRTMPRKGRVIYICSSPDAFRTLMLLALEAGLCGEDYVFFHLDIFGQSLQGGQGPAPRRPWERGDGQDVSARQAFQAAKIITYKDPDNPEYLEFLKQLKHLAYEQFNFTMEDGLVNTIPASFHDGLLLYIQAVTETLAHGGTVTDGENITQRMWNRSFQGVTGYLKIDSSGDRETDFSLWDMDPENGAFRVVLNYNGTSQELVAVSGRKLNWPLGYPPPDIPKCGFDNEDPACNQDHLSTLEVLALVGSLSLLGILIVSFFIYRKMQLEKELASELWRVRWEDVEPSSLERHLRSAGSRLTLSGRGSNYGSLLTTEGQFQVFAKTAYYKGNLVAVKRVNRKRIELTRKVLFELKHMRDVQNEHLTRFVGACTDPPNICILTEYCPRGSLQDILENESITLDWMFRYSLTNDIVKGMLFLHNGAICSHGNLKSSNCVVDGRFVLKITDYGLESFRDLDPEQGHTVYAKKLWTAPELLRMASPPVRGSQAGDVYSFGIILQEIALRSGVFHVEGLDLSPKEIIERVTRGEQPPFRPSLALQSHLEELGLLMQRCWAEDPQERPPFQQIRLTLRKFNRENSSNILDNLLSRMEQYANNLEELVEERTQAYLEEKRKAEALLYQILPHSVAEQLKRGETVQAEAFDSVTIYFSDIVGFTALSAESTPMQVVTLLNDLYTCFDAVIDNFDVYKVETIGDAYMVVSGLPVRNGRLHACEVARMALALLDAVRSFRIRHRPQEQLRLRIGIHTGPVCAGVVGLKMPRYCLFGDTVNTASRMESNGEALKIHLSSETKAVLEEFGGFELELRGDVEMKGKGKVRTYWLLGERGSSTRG
- Sequence (P01160 124-151 partner limits assumed): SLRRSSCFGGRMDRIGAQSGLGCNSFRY
- experimental details: cGMP production by HTRF in HEK293 cells overexpressing pGC-A, with ANP
- Assay type: cell-based
- measurement context: HEK293, HEK293 cells overexpressing pGC-A; cGMP normalized to maximal amount produced by an EC80 concentration of ANP; read-out: Max efficacy
- From the text: Assay: Generally, the assay monitors the production of cGMP, the second messenger generated by pGC-A, by Time-Resolved Florescence (HTRF) in HEK293 cells overexpressing the pGC-A. pGC-A suspension cells were stimulated in the presence of the test compound and an EC20 concentration of ANP. The quantity of cGMP was detected by competitive immunoassay using Eu^3+ cryptate-labeled anti-cGMP and d2-labeled cGMP and normalized to maximal amount produced by an EC80 concentration of ANP. […]
measured endpoint: Emax (%)

{"molecule": "COC(=O)CN1CC(N2CCCC(C(=O)Nc3nc4c(Cl)cc(F)cc4s3)C2)C1 (stereo not drawn)", "measured endpoint": "Emax", "unit label": "%", "val": 79}
{"molecule": "CN1CC(N2CCCC(C(=O)Nc3nc4c(F)cc(F)cc4s3)C2)C1 (stereo not drawn)", "measured endpoint": "Emax", "unit label": "%", "val": 83}
{"molecule": "CN1CCC(N2CCCC(C(=O)Nc3nc4c(F)cc(F)cc4s3)C2)CC1 (stereo not drawn)", "measured endpoint": "Emax", "unit label": "%", "val": 93}
{"molecule": "CN1CCC(N2CCCC(C(=O)Nc3nc4c(F)cc(F)cc4s3)C2)C1=O (stereo not drawn)", "measured endpoint": "Emax", "unit label": "%", "val": 89}
{"molecule": "CC1NCC1N1CCCC(C(=O)Nc2nc3c(Cl)cc(F)cc3s2)C1 (stereo not drawn)", "measured endpoint": "Emax", "unit label": "%", "val": 81}
{"molecule": "COC1CNCC(C(=O)Nc2nc3c(F)cc(F)cc3s2)C1 (stereo not drawn)", "measured endpoint": "Emax", "unit label": "%", "val": 75}

[a] O=C(Nc1nc2c(F)cc(F)cc2s1)C1CCCN(c2ccncc2)C1 (stereo not drawn)
[b] O=C(Nc1nc2c(Cl)cc(F)cc2s1)C1CCCN(C2CNC2)C1 (stereo not drawn)
Prompt line: Of the two listed items, a and b , which carries the larger Emax figure? To answer, give the label that identifies your chosen option.
Response line: a

The measurements presented in this section are drawn from patent US20250092030A1.
